Just for reference, patent US20190269801A1 is where these values come from.

tested on: B-cell lymphoma cell lines Namalwa, Raji, CA46, Ramos, Daudi; test: Growth and viability of B-cell Burkitt's lymphoma cell lines, MTT, 72 h; assay type: cell-based, human; conditions: 72 h exposure; range over all BL cell lines tested
measure: IC50

QUERY: Answer with the recorded IC50 of N.N.[Cl][Pt][Cl] [cisplatin, reference compound] only.
RESULT: > 64 µM

----------
test system: Resistant C4-2B PC cells; experiment: Growth inhibition of AA/EZ resistant C4-2B PC cells cultured as 2D monolayer; type: cell-based; conditions: Homo sapiens, NIR-SM 0.25 μM
measure: pIC50
Keep it numeric: pIC50 is minus log10 of the concentration in mol/L.

QUERY: Answer with the recorded pIC50 of CC(=O)O[C@H]1CC[C@@]2(C)C(=CC[C@@H]3[C@@H]2CC[C@]2(C)C(c4cccnc4)=CC[C@@H]32)C1 [AA, abiraterone acetate] only.
RESULT: 5.48

----------
system: RCC cell lines Caki-1, o-786, ACHN and SK-RC; assay: Growth and viability of RCC cell lines, 72 h exposure (crystal violet); assay type: cell-based, human; settings: range over all RCC cell lines tested
measure: IC50

QUERY: Answer with the recorded IC50 of N.N.[Cl][Pt][Cl] [cisplatin, reference compound] only.
RESULT: > 64 µM
